Known self-cleavage of a selection of variants
B1: CPEB3 Ribozyme (parent)
chain: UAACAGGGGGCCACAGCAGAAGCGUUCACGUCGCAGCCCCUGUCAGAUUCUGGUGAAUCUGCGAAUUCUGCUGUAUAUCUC

- Variants of: B1
- Protocol text: self-cleavage, relative activity (ratio to wild type); higher = more cleavage; in vitro, sequencing
# print the numeric value only

Before answering, review these 4 worked examples.
| Mutant | Measured endpoint | Recorded value |
| --- | --- | --- |
| A15G U41C | self-cleavage | 0.74 |
| U1C C68G | self-cleavage | 0.25 |
| G24U U51C | self-cleavage | 0.2 |
| C14U A56U | self-cleavage | 0.5 |

Input line: Identify measured self-cleavage corresponding to G9U U72A
Output line: 0.09

Input line: Quick one: give measured self-cleavage for G33A G61A
Output line: 0.14

Input line: // Input: A20U G22U . Output its self-cleavage only.
Output line: 0.1

Input line: Fill in self-cleavage for record C62A U74A
Output line: 0.18

Input line: Supply recorded self-cleavage for G8C U43C here.
Output line: 0.4
